# METHOD: PET imaging and biodistribution in SK-MEL-24 tumor-bearing mice
# Type: in vivo, mouse
# CONDITION DESCRIPTION: mouse, bladder, intravenous; SK-MEL-24 in NSG mice; 20 μCi; 1 h; n=3; read-out: Biodistribution: Bladder
PROPERTY NAME: tissue uptake at 1 h (%ID/g)
Numbers only, in %ID/g.

Q) Name the reported tissue uptake at 1 h value associated with the molecule "N#C[C@@H]1CCCN1C(=O)CNC(=O)c1ccnc2ccc(OCCCNC(=O)CCc3cn(CCOCCOCCOCCOCCOCCOCCC(=O)N[C@@H](CCCCNC(=O)CN4CCN(CC(=O)O)CCN(CC(=O)O)CC4)C(=O)NCCCCC(=O)N(CCCC[C@H](NC(=O)N[C@@H](CCC(=O)O)C(=O)O)C(=O)O)Cc4ccc(Br)cc4)nn3)cc12"
A) 3.53

---

# Test system: U87 tumor
# METHOD: PET imaging and tissue biodistribution in U87 tumor-bearing mice
# Type: in vivo, mouse
# CONDITION DESCRIPTION: untitled table; radiolabel and time not given; in %ID/g
Please respond with reported Biodistribution: Spleen for every item in the list.
One number for each entry.

MOLECULE | TARGET DESC | PROPERTY NAME | RESULT NUMBER
N#C[C@@H]1CCCN1C(=O)CNC(=O)c1ccnc2ccc(OCCCNC(=O)C(CCNC(=O)c3ccc(F)nc3)NC(=O)CN3CCN(CC(=O)O)CCN(CC(=O)O)CCN(CC(=O)O)CC3)cc12 (some centres unmarked) [SRI-08-15] | U87 tumor | Biodistribution: Spleen | 1.59
N#CC1CCCN1C(=O)CNC(=O)c1ccnc2ccc(OCCCNC(=O)CCc3cn(CCCC[C@H](NC(=O)c4ccc(F)nc4)C(=O)NCCNC(=O)CN4CCN(CC(=O)O)CCN(CC(=O)O)CCN(CC(=O)O)CC4)nn3)cc12 (some centres unmarked) [SRI-08-35] | U87 tumor | Biodistribution: Spleen | 3.08
N#CC1CCCN1C(=O)CNC(=O)c1ccnc2ccc(OCCCNC(=O)CCc3cn(CC[C@H](NC(=O)c4ccc(F)nc4)C(=O)NCCNC(=O)CN4CCN(CC(=O)O)CCN(CC(=O)O)CCN(CC(=O)O)CC4)nn3)cc12 (some centres unmarked) [SRI-07-56] | U87 tumor | Biodistribution: Spleen | 4.21

Please give Biodistribution: Spleen, item by item, for the list that follows.
1. N#C[C@@H]1CCCN1C(=O)CNC(=O)c1ccnc2ccc(OCCCN3CC4CN(C(=O)C(CCNC(=O)c5ccc(F)nc5)NC(=O)CN5CCN(CC(=O)O)CCN(CC(=O)O)CCN(CC(=O)O)CC5)CC4C3)cc12 (some centres unmarked) [SRI-08-37]
2. N#C[C@@H]1CCCN1C(=O)CNC(=O)c1ccnc2ccc(OCCCNC(=O)CCOCCOCCOCCNC(=O)C(CCNC(=O)c3ccc(F)nc3)NC(=O)CN3CCN(CC(=O)O)CCN(CC(=O)O)CCN(CC(=O)O)CC3)cc12 (some centres unmarked) [SRI-08-27]

A)
1: 1.45; 2: 2.59

---

# Test system: U87 tumor
# METHOD: PET imaging and tissue biodistribution in U87 tumor-bearing mice
# Type: in vivo, mouse
# CONDITION DESCRIPTION: untitled table; radiolabel and time not given; in %ID/g
# Description: Cell uptake assays, flow cytometry, and IHC were performed as described previously. Banerjee et al., 2019; Nimmagadda et al., 2018. PET imaging and biodistribution Sequential PET imaging and biodistribution studies were conducted to quantify and validate PET imaging data. Briefly, tumor-bearing mice were administrated approximately 7.4 MBq of radiotracer in 150 μL saline via tail-vein injection. They were randomized into the indicated groups of 3-4 mice before radiotracer injection. […]
PROPERTY NAME: Biodistribution: Fat
Give bare numbers.

The following compounds have reported results that may help.
COMPOUND | RESULT NUMBER
N#CC1CCCN1C(=O)CNC(=O)c1ccnc2ccc(OCCCNC(=O)CCc3cn(CC[C@H](NC(=O)c4ccc(F)nc4)C(=O)NCCNC(=O)CN4CCN(CC(=O)O)CCN(CC(=O)O)CCN(CC(=O)O)CC4)nn3)cc12 (some centres unmarked) | 0.49
N#C[C@@H]1CCCN1C(=O)CNC(=O)c1ccnc2ccc(OCCCN3CC4CN(C(=O)C(CCNC(=O)c5ccc(F)nc5)NC(=O)CN5CCN(CC(=O)O)CCN(CC(=O)O)CCN(CC(=O)O)CC5)CC4C3)cc12 (some centres unmarked) | 1.04
N#CC1CCCN1C(=O)CNC(=O)c1ccnc2ccc(OCCCNC(=O)CCc3cn(CCCC[C@H](NC(=O)c4ccc(F)nc4)C(=O)NCCNC(=O)CN4CCN(CC(=O)O)CCN(CC(=O)O)CCN(CC(=O)O)CC4)nn3)cc12 (some centres unmarked) | 0.56

Please give Biodistribution: Fat, item by item, for the list that follows.
1. N#C[C@@H]1CCCN1C(=O)CNC(=O)c1ccnc2ccc(OCCCNC(=O)C(CCNC(=O)c3ccc(F)nc3)NC(=O)CN3CCN(CC(=O)O)CCN(CC(=O)O)CCN(CC(=O)O)CC3)cc12 (some centres unmarked)
2. N#C[C@@H]1CCCN1C(=O)CNC(=O)c1ccnc2ccc(OCCCNC(=O)CCOCCOCCOCCNC(=O)C(CCNC(=O)c3ccc(F)nc3)NC(=O)CN3CCN(CC(=O)O)CCN(CC(=O)O)CCN(CC(=O)O)CC3)cc12 (some centres unmarked)

A)
[0.92, 0.45]
